Where do these numbers come from? They come from paper PMC11569205.

# TARGET_OR_TEST_SYSTEM: DdMyo5b (Dictyostelium discoideum)
# Construct: gene myoJ; motor domain
# Sequence (P54697 whole entry, the tested form may be a part): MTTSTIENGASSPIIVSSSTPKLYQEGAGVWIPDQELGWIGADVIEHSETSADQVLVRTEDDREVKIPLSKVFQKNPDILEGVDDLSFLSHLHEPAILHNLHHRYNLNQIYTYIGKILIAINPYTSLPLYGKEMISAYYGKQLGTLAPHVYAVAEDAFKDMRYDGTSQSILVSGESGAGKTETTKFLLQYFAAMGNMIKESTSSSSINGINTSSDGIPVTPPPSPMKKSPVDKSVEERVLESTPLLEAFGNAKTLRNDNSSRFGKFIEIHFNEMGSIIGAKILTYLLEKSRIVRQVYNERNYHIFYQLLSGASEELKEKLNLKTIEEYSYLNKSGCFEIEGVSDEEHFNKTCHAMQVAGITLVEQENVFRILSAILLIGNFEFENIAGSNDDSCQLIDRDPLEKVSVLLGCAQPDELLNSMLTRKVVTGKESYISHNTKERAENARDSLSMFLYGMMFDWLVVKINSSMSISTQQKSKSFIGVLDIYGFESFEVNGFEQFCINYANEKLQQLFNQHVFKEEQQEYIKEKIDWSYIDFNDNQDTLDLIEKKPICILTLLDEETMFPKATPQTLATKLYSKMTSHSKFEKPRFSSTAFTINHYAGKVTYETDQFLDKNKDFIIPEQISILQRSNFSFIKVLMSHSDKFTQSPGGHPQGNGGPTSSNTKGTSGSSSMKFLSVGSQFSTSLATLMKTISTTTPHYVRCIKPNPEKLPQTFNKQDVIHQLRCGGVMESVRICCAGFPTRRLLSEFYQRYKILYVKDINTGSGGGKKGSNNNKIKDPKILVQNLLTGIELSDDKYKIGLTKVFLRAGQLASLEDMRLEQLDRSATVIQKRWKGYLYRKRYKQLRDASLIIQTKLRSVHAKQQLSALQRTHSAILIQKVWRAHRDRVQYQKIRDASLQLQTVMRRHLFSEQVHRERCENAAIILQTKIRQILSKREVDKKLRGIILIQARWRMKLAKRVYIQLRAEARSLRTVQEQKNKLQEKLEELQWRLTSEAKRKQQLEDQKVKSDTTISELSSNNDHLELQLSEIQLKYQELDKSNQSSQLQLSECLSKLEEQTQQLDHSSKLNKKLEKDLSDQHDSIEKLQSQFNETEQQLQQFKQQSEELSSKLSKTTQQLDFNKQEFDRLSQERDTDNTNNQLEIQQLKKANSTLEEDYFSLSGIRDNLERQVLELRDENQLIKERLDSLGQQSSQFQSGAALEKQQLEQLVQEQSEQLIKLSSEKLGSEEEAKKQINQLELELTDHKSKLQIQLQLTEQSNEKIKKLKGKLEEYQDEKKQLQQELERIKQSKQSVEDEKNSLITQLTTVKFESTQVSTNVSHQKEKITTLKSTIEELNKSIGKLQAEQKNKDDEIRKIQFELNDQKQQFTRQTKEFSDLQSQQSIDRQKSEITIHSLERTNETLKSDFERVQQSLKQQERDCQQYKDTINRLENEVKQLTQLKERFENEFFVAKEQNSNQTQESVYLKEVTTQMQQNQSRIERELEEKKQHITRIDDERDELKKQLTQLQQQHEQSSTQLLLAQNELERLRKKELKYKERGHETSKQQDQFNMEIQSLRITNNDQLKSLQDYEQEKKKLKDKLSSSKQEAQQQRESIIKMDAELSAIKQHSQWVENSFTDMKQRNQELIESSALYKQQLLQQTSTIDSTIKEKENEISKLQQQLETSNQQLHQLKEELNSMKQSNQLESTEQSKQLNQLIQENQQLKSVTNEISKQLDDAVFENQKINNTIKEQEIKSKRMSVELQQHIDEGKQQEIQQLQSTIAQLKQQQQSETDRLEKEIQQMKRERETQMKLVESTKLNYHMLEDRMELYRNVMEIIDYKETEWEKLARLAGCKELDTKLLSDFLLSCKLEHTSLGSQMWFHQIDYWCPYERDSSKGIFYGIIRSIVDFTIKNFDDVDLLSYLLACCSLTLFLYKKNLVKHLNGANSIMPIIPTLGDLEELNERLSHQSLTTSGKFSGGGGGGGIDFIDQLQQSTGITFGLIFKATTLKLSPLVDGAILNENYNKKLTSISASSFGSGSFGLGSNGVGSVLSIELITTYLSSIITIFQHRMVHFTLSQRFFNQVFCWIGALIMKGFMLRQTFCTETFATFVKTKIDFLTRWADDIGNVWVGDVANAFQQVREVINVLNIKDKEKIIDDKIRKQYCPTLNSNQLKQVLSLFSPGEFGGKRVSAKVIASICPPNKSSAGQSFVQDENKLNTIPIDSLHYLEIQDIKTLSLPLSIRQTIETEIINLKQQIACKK
# PROTOCOL_SUMMARY: biochemical
# Set-up: binding affinity of compound to purified myosin (technique not given in the excerpts)
PROPERTY_MEASURED: Kd

INSERT INTO measurements (smiles_text, property_measured, measurement) VALUES
  ('Cc1ccc2[nH]c3c(O)cc(Br)c(Br)c3c2c1', 'Kd', '33.2 µM');

---

# TARGET_OR_TEST_SYSTEM: Rn myosin-9b (Myo9b) (Rattus norvegicus, UniProt Q63358)
# Construct: motor domain construct
# PROTOCOL_SUMMARY: biochemical
# Set-up: inhibition of myosin ATPase activity
PROPERTY_MEASURED: IC50 (nM)

INSERT INTO results (molecule, measurement) VALUES
  ('Cc1ccc2[nH]c3c(O)cc(Br)c(Br)c3c2c1 [compound 5, 3,4-dibromo-6-methyl-9H-carbazol-1-ol]', 2000);
